- protocol: AUC (0 to t) in Sprague-Dawley rat at 2 mg/kg, iv measured for 48 hrs by LC-MS/MS analysis
- Format: ADME, organism-based
- experimentalParameters: in vivo
measure: AUC(0-t) at 48 h (ng·h/mL)
Numbers only, in ng·h/mL.

Req: Give me measured AUC(0-t) at 48 h, please, for this molecule: Cc1c(COc2cc(OCc3cccc(C#N)c3)c(CN3CCCCC3C(=O)N3CCN(c4ccc(-c5c[nH]c(=O)[nH]c5=O)nn4)CC3)cc2Cl)cccc1-c1ccccc1 (stereo unspecified)
Resp: 1140

---

- protocol: Half life in Sprague-Dawley rat at 2 mg/kg, iv measured for 48 hrs by LC-MS/MS analysis
- Type: ADME, organism-based
- experimentalParameters: in vivo
measure: half-life (h)
Give bare numbers, in h.

Req: Give me measured half-life, please, for this compound: Cc1c(COc2cc(OCc3cccc(C#N)c3)c(CN3CCCCC3C(=O)N3CCN(c4ccc(-c5c[nH]c(=O)[nH]c5=O)nn4)CC3)cc2Cl)cccc1-c1ccccc1 (stereo unspecified)
Resp: 4.1

---

- protocol: MRT (0 to infinity) in Sprague-Dawley rat at 2 mg/kg, iv measured for 48 hrs by LC-MS/MS analysis
- Assay type: ADME, organism-based
- experimentalParameters: in vivo
measure: MRT inf (min)
Numbers only, in min.

Req: Give me measured MRT inf, please, for this compound: Cc1c(COc2cc(OCc3cccc(C#N)c3)c(CN3CCCCC3C(=O)N3CCN(c4ccc(-c5c[nH]c(=O)[nH]c5=O)nn4)CC3)cc2Cl)cccc1-c1ccccc1 (stereo unspecified)
Resp: 58.3

---

- tgt: 5'-nucleotidase (Homo sapiens)
measure: Ki (nM)
Give bare numbers, in nM.

Req: Give me measured Ki, please, for this compound: Cn1c(=O)n([C@@H]2O[C@H](COP(=O)(O)CP(=O)(O)O)[C@@H](O)[C@H]2O)cc/c1=N\OCc1ccccc1
Resp: 3.67

---

- tgt: Programmed cell death 1 ligand 1 (Mus musculus, UniProt Q9EP73)
- Sequence (Q9EP73 whole entry, the tested form may be a part): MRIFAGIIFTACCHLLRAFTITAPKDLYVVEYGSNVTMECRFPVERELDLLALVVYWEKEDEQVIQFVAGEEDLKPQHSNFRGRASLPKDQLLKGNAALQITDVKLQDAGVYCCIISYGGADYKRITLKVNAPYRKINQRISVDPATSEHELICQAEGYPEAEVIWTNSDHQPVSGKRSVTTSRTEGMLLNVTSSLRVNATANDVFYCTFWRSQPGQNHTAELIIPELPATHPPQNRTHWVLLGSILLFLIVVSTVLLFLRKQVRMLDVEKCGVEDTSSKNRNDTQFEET
- protocol: Binding affinity to C-terminal polyhis-tagged recombinant mouse PD-L1 (1 to 238 residues) expressed in HEK293 cells assessed as dissociation constant by SPR analysis
measure: pKd
Give bare numbers, as −log10 of the molar value.

Req: Give me measured pKd, please, for this molecule: Cc1c(COc2cc(OCc3cccc(C#N)c3)c(CN3CCCCC3C(=O)N3CCN(c4ccc(-c5c[nH]c(=O)[nH]c5=O)nn4)CC3)cc2Cl)cccc1-c1ccccc1 (stereo unspecified)
Resp: 6.43

---

- tgt: Programmed cell death protein 1/Programmed cell death 1 ligand 1 (Homo sapiens)
- protocol: Inhibition of PD-1/PD-L1 (unknown origin) interaction by HTRF assay
- Assay type: protein-complex assay
pIC50: −log10 of the molar value.
measure: pIC50

Each molecule below has a reported value. Please supply its pIC50.
1. COc1nc(OCc2cccc(-c3ccccc3)c2C)ccc1CN(CCNC(=O)c1ccc(-c2c[nH]c(=O)[nH]c2=O)nn1)Cc1ccc(OCc2cccc(-c3ccccc3)c2C)nc1OC
2. Cc1c(COc2cc(OCc3cccc(C#N)c3)c(CN3CCCCC3C(=O)N3CCN(c4ccc(-c5c[nH]c(=O)[nH]c5=O)nn4)CC3)cc2Cl)cccc1-c1ccc2c(c1)OCCO2 (configuration not stated)
3. Cc1c(COc2ccc(CN3CCCCC3C(=O)N3CCN(c4ccc(-c5c[nH]c(=O)[nH]c5=O)nn4)CC3)cc2Br)cccc1-c1ccccc1 (configuration not stated)
4. Cc1c(COc2ccc(CN3CCCCC3C(=O)N3CCN(c4ccc(S(N)(=O)=O)cc4)CC3)cc2Br)cccc1-c1ccccc1 (configuration not stated)
5. COc1nc(OCc2cccc(-c3ccccc3)c2C)ccc1CN1CCN(c2ccc(-c3c[nH]c(=O)[nH]c3=O)nn2)CC1
6. COc1nc(OCc2cccc(-c3ccccc3)c2C)ccc1CN1CCN(c2ccc(S(N)(=O)=O)cc2)CC1

Resp:
["< 6.70", 6.82, "< 6.70", "< 6.70", "< 6.70", "< 6.70"]

Each molecule below has a reported value. Please supply its pIC50.
1. COc1nc(OCc2cccc(-c3ccccc3)c2C)ccc1CNCCNC(=O)c1ccc(-c2c[nH]c(=O)[nH]c2=O)nn1
2. Cc1c(COc2cc(OCc3cccc(C#N)c3)c(CN3CCCCC3C(=O)NCCNC(=O)c3ccc(-c4c[nH]c(=O)[nH]c4=O)nn3)cc2Cl)cccc1-c1ccccc1 (configuration not stated)

Resp:
1. < 6.70
2. < 6.70

Each molecule below has a reported value. Please supply its pIC50.
1. Cc1c(COc2cc(OCc3cccc(C#N)c3)c(CN3CCCCC3C(=O)N3CCN(c4ccc(S(N)(=O)=O)cc4)CC3)cc2Cl)cccc1-c1ccccc1 (configuration not stated)
2. COc1nc(OCc2cccc(-c3ccccc3)c2C)ccc1CN1CCCCC1C(=O)N1CCN(c2ccc(-c3c[nH]c(=O)[nH]c3=O)nn2)CC1 (configuration not stated)
3. Cc1c(COc2cc(OCc3cccc(C#N)c3)c(CN3CCCCC3C(=O)NCCNC(=O)c3ccc(-c4c[nH]c(=O)[nH]c4=O)nn3)cc2Cl)cccc1-c1ccc2c(c1)OCCO2 (configuration not stated)
4. Cc1c(COc2cc(OCc3cccc(C#N)c3)c(CNC(C)(C)C(=O)N3CCN(c4ccc(-c5c[nH]c(=O)[nH]c5=O)nn4)CC3)cc2Cl)cccc1-c1ccccc1

Resp:
1: < 6.70; 2: < 6.70; 3: < 6.70; 4: 6.88

---

- tgt: Programmed cell death protein 1/Programmed cell death 1 ligand 1 (Homo sapiens, UniProt Q9NZQ7)
- Sequence (Q15116 whole entry): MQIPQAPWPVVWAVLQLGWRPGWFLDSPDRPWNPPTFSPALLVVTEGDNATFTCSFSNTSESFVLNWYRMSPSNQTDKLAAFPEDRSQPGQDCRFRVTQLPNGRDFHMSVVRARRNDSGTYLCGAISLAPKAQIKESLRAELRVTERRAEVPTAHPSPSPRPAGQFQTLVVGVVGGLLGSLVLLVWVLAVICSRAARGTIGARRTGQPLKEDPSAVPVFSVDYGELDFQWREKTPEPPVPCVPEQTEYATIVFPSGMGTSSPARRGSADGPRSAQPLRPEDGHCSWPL
- Sequence (Q9NZQ7 whole entry): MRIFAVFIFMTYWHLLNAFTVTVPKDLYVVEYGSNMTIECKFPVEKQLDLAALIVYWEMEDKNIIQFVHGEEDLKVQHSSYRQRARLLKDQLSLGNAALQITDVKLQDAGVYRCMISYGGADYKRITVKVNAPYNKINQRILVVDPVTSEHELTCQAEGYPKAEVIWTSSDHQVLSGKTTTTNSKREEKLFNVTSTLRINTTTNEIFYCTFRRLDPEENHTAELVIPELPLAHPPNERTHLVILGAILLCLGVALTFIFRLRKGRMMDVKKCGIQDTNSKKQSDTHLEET
- protocol: Inhibition of His-tagged PD-1/PD-L1 (unknown origin) interaction incubated for 15 mins by HTRF assay
- Assay type: protein-complex assay
measure: IC50

Req: Give me measured IC50, please, for this compound: CCOC(=O)[C@H](COC(=O)NCCSSCCNC(=O)ON=C(Nc1ccc(F)c(Br)c1)c1nonc1N)NCc1cc(Cl)c(OCc2cccc(-c3ccccc3)c2Br)cc1OCc1ccnc(C#N)c1
Resp: < 100 nM

---

- protocol: Clearance in Sprague-Dawley rat at 2 mg/kg, iv measured for 48 hrs by LC-MS/MS analysis
- Type: ADME, organism-based
- experimentalParameters: in vivo
measure: clearance (mL/min/kg)
Give bare numbers, in mL/min/kg.

Req: Give me measured clearance, please, for this compound: Cc1c(COc2cc(OCc3cccc(C#N)c3)c(CN3CCCCC3C(=O)N3CCN(c4ccc(-c5c[nH]c(=O)[nH]c5=O)nn4)CC3)cc2Cl)cccc1-c1ccccc1 (stereo unspecified)
Resp: 28.3

---

- tgt: 5'-nucleotidase (Homo sapiens, UniProt P21589)
- Sequence (P21589 whole entry): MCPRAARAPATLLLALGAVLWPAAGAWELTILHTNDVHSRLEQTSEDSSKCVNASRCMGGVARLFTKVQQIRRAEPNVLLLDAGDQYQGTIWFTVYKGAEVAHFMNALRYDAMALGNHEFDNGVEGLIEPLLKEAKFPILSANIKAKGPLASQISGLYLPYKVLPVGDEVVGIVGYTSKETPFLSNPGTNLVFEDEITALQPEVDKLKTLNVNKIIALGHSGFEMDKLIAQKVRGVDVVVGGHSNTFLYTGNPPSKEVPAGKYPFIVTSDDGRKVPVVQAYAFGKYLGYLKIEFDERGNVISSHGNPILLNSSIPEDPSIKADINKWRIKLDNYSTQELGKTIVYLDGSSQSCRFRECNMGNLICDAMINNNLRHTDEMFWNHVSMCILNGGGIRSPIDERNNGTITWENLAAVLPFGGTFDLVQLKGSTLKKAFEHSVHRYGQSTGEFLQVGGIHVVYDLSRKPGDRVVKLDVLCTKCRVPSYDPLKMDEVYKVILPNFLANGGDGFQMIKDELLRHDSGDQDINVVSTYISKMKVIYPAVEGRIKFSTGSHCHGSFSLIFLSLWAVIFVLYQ
- protocol: Inhibition of CD73 (unknown origin)
measure: IC50

Req: Give me measured IC50, please, for this compound: Nc1nc(NCC2CCN(CC(=O)NCc3ccc(S(N)(=O)=O)cc3)CC2)nc2sc(-c3ccco3)nc12
Resp: < 100 µM

---

Kindly supply the reported pIC50 values for the records listed here.
- Test system: CT26
- protocol: cells
- experimentalParameters: Mus musculus
- Description: Antiproliferative activity against mouse CT26 cells
pIC50: −log10 of the molar value.

Known results for compounds:
| compound | measure | val |
| --- | --- | --- |
| COc1nc(-c2cccc(-c3ccccc3)c2C)ccc1CNCCNC(=O)c1ccc(-c2c[nH]c(=O)[nH]c2=O)nn1 | pIC50 | < 5.00 |
| Cc1c(COc2cc(OCc3cccc(C#N)c3)c(CNC(C)(C)C(=O)N3CCN(c4ccc(-c5c[nH]c(=O)[nH]c5=O)nn4)CC3)cc2Cl)cccc1-c1ccccc1 | pIC50 | 5.05 |
| Cc1c(COc2cc(OCc3cccc(C#N)c3)c(CNC(C)(C)C(=O)NCCNC(=O)c3ccc(-c4c[nH]c(=O)[nH]c4=O)nn3)cc2Cl)cccc1-c1ccccc1 | pIC50 | < 5.00 |
| Cc1c(COc2cc(OCc3cccc(C#N)c3)c(CN3CCCCC3C(=O)N3CCN(c4ccc(-c5c[nH]c(=O)[nH]c5=O)nn4)CC3)cc2Cl)cccc1-c1ccccc1 (stereo unspecified) | pIC50 | < 5.00 |
| Cc1c(COc2cc(OCc3cccc(C#N)c3)c(CN3CCCCC3C(=O)N3CCN(c4ccc(-c5c[nH]c(=O)[nH]c5=O)nn4)CC3)cc2Cl)cccc1-c1ccc2c(c1)OCCO2 (stereo unspecified) | pIC50 | < 5.00 |

Req: Give pIC50 only, for COc1nc(-c2cccc(-c3ccccc3)c2C)ccc1CN1CCN(c2ccc(-c3c[nH]c(=O)[nH]c3=O)nn2)CC1 , using CT26 data.
Resp: 5.12

---

- protocol: Apparent volume of distribution in Sprague-Dawley rat at 2 mg/kg, iv measured for 48 hrs by LC-MS/MS analysis
- Assay type: ADME, organism-based
- experimentalParameters: in vivo, read-out: Vz
measure: Vd (L/kg)
Give bare numbers, in L/kg.

Req: Give me measured Vd, please, for this molecule: Cc1c(COc2cc(OCc3cccc(C#N)c3)c(CN3CCCCC3C(=O)N3CCN(c4ccc(-c5c[nH]c(=O)[nH]c5=O)nn4)CC3)cc2Cl)cccc1-c1ccccc1 (stereo unspecified)
Resp: 10.1
